# molar heat capacity at constant pressure listing for each entry below
Assay Text: molar heat capacity at constant pressure
Stated Conditions: 298 K; 101.33 kPa; Liquid; Large sample (1 g) DSC
// note: answer is a bare numeric in J/K/mol

Guide cases for molar heat capacity at constant pressure, answers given:
- Compound: "CCCC[n+]1cccc(C)c1.O=S(=O)([N-]S(=O)(=O)C(F)(F)F)C(F)(F)F"
  molar heat capacity at constant pressure (J/K/mol): 622
- Compound: "CCCCCCCCCCCCCC[N+](C)(CCOCCOCCOCCOCCOCCO)CCOCCOCCOCCOCCOCCO.COS(=O)(=O)[O-]"
  molar heat capacity at constant pressure (J/K/mol): 1066
- Compound: "CCCCCCCC[n+]1ccn(C)c1.F[B-](F)(F)F [1-methyl-3-octylimidazolium tetrafluoroborate]"
  molar heat capacity at constant pressure (J/K/mol): 506
- Compound: "CCCCCCCCn1cc[n+](C)c1.[Br-] [1-methyl-3-octylimidazolium bromide]"
  molar heat capacity at constant pressure (J/K/mol): 392

Now for the compound whose molar heat capacity at constant pressure we want.
Which molar heat capacity at constant pressure reading was recorded for the compound CCCCCCn1cc[n+](C)c1.F[B-](F)(F)F [1-hexyl-3-methylimidazolium tetrafluoroborate] ?
416

The values you see were collected from the NIST ThermoML archive (doi:10.1016/j.jct.2005.03.013).
